Tested on: RARb:RXRa (NR concentration 270 nM, RXRa partner concentration 90 nM)
Assay: PBM binding z-score (relative to random genomic background probes); higher = stronger binding; sequences stand for … in GC…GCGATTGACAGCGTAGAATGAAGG
The following ranges of PBM binding z-score define the classes used here: 0: < 0.9; 1: ≥ 0.9 and < 4; 2: ≥ 4

>  <sequence_chain>
AGTCAAAGTTCACTAGTTAACGTAAGATTCAGCT

>  <assigned_label>
2

$$$$
>  <sequence_chain>
CATACAGGGTCAGCTAGGGCAGAGTAGGGACGGC

>  <assigned_label>
2

$$$$
>  <sequence_chain>
CAAACTAGGTCAAAGGCCAAAGTCGAGCCAACCA

>  <assigned_label>
2

$$$$
>  <sequence_chain>
CCTTATGGGTCACTCCAGGTTATAGCATCGGAGT

>  <assigned_label>
1

$$$$
>  <sequence_chain>
CCTTACGGGTCACTGACAGGGTATAGCATTTGGA

>  <assigned_label>
1

$$$$
>  <sequence_chain>
ACAAGCAGGCCAAGGGTCACTCAAGATTAGTCCG

>  <assigned_label>
1

$$$$
>  <sequence_chain>
TCTAGTTGGTCACGGAAGTCACACACGACGGGTA

>  <assigned_label>
1

$$$$
>  <sequence_chain>
TCATATAGGTATAGGTGAAAGTCGAACGATATGA

>  <assigned_label>
0

$$$$
>  <sequence_chain>
TAGCCTAGGTCATTCAGGGGCCAGTAGAGAAAGC

>  <assigned_label>
1

$$$$
>  <sequence_chain>
ACAGACAGGTGAGCGAAGGTAACTCAGCTGGACG

>  <assigned_label>
0

$$$$
>  <sequence_chain>
CCAGACACGTGAAAGGTAACTCAGTCTGGTACGC

>  <assigned_label>
0

$$$$
>  <sequence_chain>
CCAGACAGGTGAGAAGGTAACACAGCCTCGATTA

>  <assigned_label>
0

$$$$
>  <sequence_chain>
GGAAAGAGGGCAAGTTGATAGCAGAGTTTGATGG

>  <assigned_label>
1

$$$$
>  <sequence_chain>
TTATCAAGGTGAAGGTCGTTGATCCCTCTGTAGA

>  <assigned_label>
1

$$$$
>  <sequence_chain>
GCTGCTAGGTCCGGTTGGTCAGCTAACGGGTACG

>  <assigned_label>
0

$$$$
>  <sequence_chain>
ATCTCTAGGTAAGACTCAGCTCAGTGAAGAACGC

>  <assigned_label>
0

$$$$
>  <sequence_chain>
CTTCCAAGGTCAATGCTAGGTCAGTGAAAGCATT

>  <assigned_label>
2

$$$$
>  <sequence_chain>
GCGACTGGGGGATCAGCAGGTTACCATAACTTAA

>  <assigned_label>
0

$$$$
>  <sequence_chain>
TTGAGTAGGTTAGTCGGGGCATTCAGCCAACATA

>  <assigned_label>
0

$$$$
>  <sequence_chain>
GCAACGAGGGCAAAGTTGATAGCATCTGTCGACG

>  <assigned_label>
1

$$$$
>  <sequence_chain>
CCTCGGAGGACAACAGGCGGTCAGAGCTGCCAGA

>  <assigned_label>
1

$$$$
>  <sequence_chain>
ACAGACAGGTGAGTGAAGGTGACTCAGCTGGACG

>  <assigned_label>
1

$$$$
>  <sequence_chain>
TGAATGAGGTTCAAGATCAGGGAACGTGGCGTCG

>  <assigned_label>
1

$$$$
>  <sequence_chain>
AGAACGAGGGCCCGCTGAGTTGATAGCAGAGTAG

>  <assigned_label>
0

$$$$
>  <sequence_chain>
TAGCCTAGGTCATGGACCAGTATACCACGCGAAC

>  <assigned_label>
1

$$$$
>  <sequence_chain>
TCTAGTTGGTCAATGGTCACACACTCGAAATGCG

>  <assigned_label>
1

$$$$
>  <sequence_chain>
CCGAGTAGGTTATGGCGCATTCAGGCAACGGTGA

>  <assigned_label>
0

$$$$
>  <sequence_chain>
CCGACTGGGGCAGAAAGGTTAGCATACCATCCGG

>  <assigned_label>
1

$$$$
>  <sequence_chain>
ATCTCTAGGTAAAAGTACAGTGAATCCCGAGGAT

>  <assigned_label>
0

$$$$
>  <sequence_chain>
TCTGCTAGCTCAGTTGGTCAGCTAACGAGCTGCC

>  <assigned_label>
0

$$$$
>  <sequence_chain>
CCTGGCAGGCCAATCTGGGTCACTCAAGGCTTGA

>  <assigned_label>
1

$$$$
>  <sequence_chain>
ACTCGGAGGACAAAGGTCATAGCTACGCCAGTGA

>  <assigned_label>
2

$$$$
>  <sequence_chain>
TCATTTAGGTAATACAGGTGAAAGTCGGCATCTA

>  <assigned_label>
1

$$$$
>  <sequence_chain>
CGTCAAAGTTCAAGGTAACGTAGCAGAAAGCAGC

>  <assigned_label>
2

$$$$
>  <sequence_chain>
TCTGCTAGGTCAGCGATGGTCAGCTAATCTGCTA

>  <assigned_label>
1

$$$$
>  <sequence_chain>
TCTTGTAGATCAACAGGCGGTTAAGAAAGATCGA

>  <assigned_label>
0

$$$$
>  <sequence_chain>
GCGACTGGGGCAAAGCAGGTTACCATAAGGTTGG

>  <assigned_label>
1

$$$$
>  <sequence_chain>
CAAACTAGGTCCCGAAAGGTCAAAGTCGAATGAC

>  <assigned_label>
2

$$$$
>  <sequence_chain>
GCTAGTTGGTCAGTAAAAGGTCACACAGCGGTCG

>  <assigned_label>
2

$$$$
>  <sequence_chain>
ATACCAAGGTGATCGTGAGGTCGTTGAGACTAAC

>  <assigned_label>
1

$$$$
>  <sequence_chain>
ATCTCTAGGTAACACGTTCAGTGAAAGAGAGGAC

>  <assigned_label>
0

$$$$
>  <sequence_chain>
CCTAGTTGGTCAGGAGGTCACACCCCGGATATGA

>  <assigned_label>
1

$$$$
>  <sequence_chain>
ATATGTAGGTTAAGGGTCTTTCAGGTTGGTTCGC

>  <assigned_label>
1

$$$$
>  <sequence_chain>
TCACATAGGTAAAAGGTGAAAGTCGGTGTGGTAA

>  <assigned_label>
1

$$$$
>  <sequence_chain>
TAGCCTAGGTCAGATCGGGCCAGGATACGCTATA

>  <assigned_label>
1

$$$$
>  <sequence_chain>
TATACAGGGTCAAAGGCCAGAGAACGAATGTCGA

>  <assigned_label>
2

$$$$
>  <sequence_chain>
CCAGACAGTTGAGAAGGTAACTCAGCCTCGATTA

>  <assigned_label>
0

$$$$

----------
Test system: PPARg:RXRa IVT, anti-PPARg (NR concentration 270 nM, RXRa partner concentration 90 nM)
Experiment: PBM binding z-score (relative to random genomic background probes); higher = stronger binding; sequences stand for … in GC…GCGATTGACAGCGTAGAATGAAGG

>  <sequence_chain>
CGAACGAGGCCATGAGTTGATAGCAAATGCCGAT

>  <PBM binding z-score>
0.713

$$$$
>  <sequence_chain>
CCTCGGAGGAGAACAGGAGGTCAGAGCTGCCAGA

>  <PBM binding z-score>
0.248

$$$$
>  <sequence_chain>
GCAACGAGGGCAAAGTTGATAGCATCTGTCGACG

>  <PBM binding z-score>
3.19

$$$$
>  <sequence_chain>
CCTTACGGGACACTGACAGGTTATAGCATTTGGA

>  <PBM binding z-score>
0.149

$$$$
>  <sequence_chain>
TGTCAAAGTTCAAAGGTAACGTACGTATCCACAC

>  <PBM binding z-score>
4.52

$$$$
>  <sequence_chain>
CCTACTGGGCCACGAAAGGTCATTGCTTCAGTGA

>  <PBM binding z-score>
5.7

$$$$
>  <sequence_chain>
GCTAGCAGGCCAGTTGGGTCACTCAATGACGGGC

>  <PBM binding z-score>
0.353

$$$$
>  <sequence_chain>
ATCTCTAGGTAAAATTTCAGTGAATCCCGAGGAT

>  <PBM binding z-score>
1.35

$$$$
>  <sequence_chain>
TCATATAGGCAAAAGGTGAAAGTCGGTGTGGTAA

>  <PBM binding z-score>
3.79

$$$$
>  <sequence_chain>
CAAACTAGGTCACAGACGTCAAAGTCCGTGCGTA

>  <PBM binding z-score>
8.8

$$$$
>  <sequence_chain>
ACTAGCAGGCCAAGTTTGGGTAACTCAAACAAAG

>  <PBM binding z-score>
0.362

$$$$
>  <sequence_chain>
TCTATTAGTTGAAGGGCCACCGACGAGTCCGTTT

>  <PBM binding z-score>
0.338

$$$$

----------
System: LXRb:RXRa (NR concentration 270 nM, RXRa partner concentration 90 nM)
Experiment: PBM binding z-score (relative to random genomic background probes); higher = stronger binding; sequences stand for … in GC…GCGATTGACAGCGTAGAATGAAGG
Binary classification by PBM binding z-score, with 0.02 as an inclusive lower bound for y; all other cases are n.

>  <sequence_chain>
ACTACTTGGTCAGCTGAGGTCACACACAATTCGG

>  <assigned_label>
y

$$$$
>  <sequence_chain>
CCGACTGGGGCAGAAAGGTTAACATACCATCCGG

>  <assigned_label>
y

$$$$
>  <sequence_chain>
CGGACTAGGTCATCCAGGACAGTGAATACATTGA

>  <assigned_label>
y

$$$$
>  <sequence_chain>
GGAACGAGGGCAAGTTGTTAGCAGAGTTTGATGG

>  <assigned_label>
y

$$$$
>  <sequence_chain>
TCAGACAGTTGAAGGTAACTCAGGTACGCAGTCG

>  <assigned_label>
y

$$$$
>  <sequence_chain>
CCAGACAGGTGAAAGGTAGCTCAGTCTGGTACGC

>  <assigned_label>
y

$$$$
>  <sequence_chain>
CCTTACGGGTCACTCCAGGTGATAGCATCGGAGT

>  <assigned_label>
y

$$$$
>  <sequence_chain>
GCAGACAGGTGCAACGCAGGTAACTCAGGGTGGC

>  <assigned_label>
n

$$$$
>  <sequence_chain>
ATCTCTAGGTAAGACTCAATTCAGTGAAGAACGC

>  <assigned_label>
n

$$$$
>  <sequence_chain>
AGTCAATGTTCAGGACGAGGTAACGTAAAGCACG

>  <assigned_label>
n

$$$$
>  <sequence_chain>
ACAGACAGGTGAGTGAAGGTAATTCAGCTGGACG

>  <assigned_label>
n

$$$$
>  <sequence_chain>
ACTATTAGTTGAGACGAGGGCAACCTATAGGTTG

>  <assigned_label>
y

$$$$
